Experiment: Solubility testing in vehicle, HPLC (Form III)
Assay type: physicochemical
Conditions: oil or lipid, thermodynamic from solid; Miglyol 810; RT; 72 h; pH 5.8; loading 15 mg/mL
quantityKind: solubility at 72 h

Give a short answer stating reported solubility at 72 h for C=CC(=O)N1CCC[C@@H](c2c(F)cc(C(N)=O)c3[nH]c4c(c23)CCCCC4)C1 .
2670 µg/mL

----------
Test: Phase 1 CSF penetrance (CSF/unbound plasma concentration)
Format: in vivo
Settings: both sexes, human, plasma (unbound), oral; Cohort 3, 45 mg single dose, mean; read-out: Unbound Plasma Conc @2 hr
quantityKind: concentration at 2 h (ng/mL)
Supply the numeric figure in ng/mL, leaving out any unit text.

Give a short answer stating reported concentration at 2 h for C=CC(=O)N1CCC[C@@H](c2c(F)cc(C(N)=O)c3[nH]c4c(c23)CCCCC4)C1 .
2.33

----------
Assay: Solubility testing in bio-relevant media (Form III)
Format: physicochemical
Settings: thermodynamic from solid; FeSSIF-V2, pH 5.8; 37° C.; 4 h
Protocol: FaSSIF Buffer Solution: 6 mL 0.2 M NaOH, 388.7 mg of NaH2PO4, and 608.2 mg of NaCl were dissolved and diluted to 100 mL with water. The pH was 6.51. FaSSIF Media: 34.56 mg of SIF powder was dissolved in 15 mL of FaSSIF buffer solution. The solution was stirred and equilibrated at ambient temperature with light protection for 2 hours. SIF powder was purchased from Biorelevant.com. […]
quantityKind: solubility at 4 h (µg/mL)
Supply the numeric figure in µg/mL, leaving out any unit text.

Give a short answer stating reported solubility at 4 h for C=CC(=O)N1CCC[C@@H](c2c(F)cc(C(N)=O)c3[nH]c4c(c23)CCCCC4)C1 [Form III] .
200

----------
Assay: Phase 1 single ascending dose plasma pharmacokinetics
Assay type: in vivo, human
Settings: both sexes, human, plasma, oral, 5 mg, Cohort 4, 5 mg (+10 PBO) single dose, fed, median; read-out: T1/2 (converted)
quantityKind: half-life (h)
Supply the numeric figure in h, leaving out any unit text.

Give a short answer stating reported half-life for C=CC(=O)N1CCC[C@@H](c2c(F)cc(C(N)=O)c3[nH]c4c(c23)CCCCC4)C1 [Compound 1] .
3.33

----------
Experiment: Solubility testing in vehicle, HPLC (Form III)
Type: physicochemical
Conditions: aqueous with cosolvent or surfactant or cyclodextrin, thermodynamic from solid; 1% polox188; RT; 72 h; pH 5.7; loading 15 mg/mL
quantityKind: solubility at 72 h (µg/mL)
Supply the numeric figure in µg/mL, leaving out any unit text.

Give a short answer stating reported solubility at 72 h for C=CC(=O)N1CCC[C@@H](c2c(F)cc(C(N)=O)c3[nH]c4c(c23)CCCCC4)C1 .
0.4

----------
Assay: Solubility testing in vehicle, HPLC (Form III)
Assay type: physicochemical
Conditions: organic solvent or mixture, thermodynamic from solid; Cremophor HS 15; 45° C.; 4 h; pH 7.6; loading 50 mg/mL
quantityKind: solubility at 4 h

Give a short answer stating reported solubility at 4 h for C=CC(=O)N1CCC[C@@H](c2c(F)cc(C(N)=O)c3[nH]c4c(c23)CCCCC4)C1 .
> 50 mg/mL

----------
Assay: Solubility testing in bio-relevant media (Form III)
Type: physicochemical
Conditions: thermodynamic from solid; FeSSIF, pH 5.0; 37° C.; 1 h
quantityKind: solubility at 1 h (µg/mL)
Supply the numeric figure in µg/mL, leaving out any unit text.

Give a short answer stating reported solubility at 1 h for C=CC(=O)N1CCC[C@@H](c2c(F)cc(C(N)=O)c3[nH]c4c(c23)CCCCC4)C1 [Form III] .
73

----------
Assay: Solubility testing in bio-relevant media (Form III)
Format: physicochemical
Conditions: thermodynamic from solid; FaSSIF, pH 6.5; 37° C.; 1 h
quantityKind: solubility at 1 h (µg/mL)
Supply the numeric figure in µg/mL, leaving out any unit text.

Give a short answer stating reported solubility at 1 h for C=CC(=O)N1CCC[C@@H](c2c(F)cc(C(N)=O)c3[nH]c4c(c23)CCCCC4)C1 [Form III] .
6

----------
Test: Solubility testing in vehicle, HPLC (Form III)
Format: physicochemical
Conditions: aqueous with cosolvent or surfactant or cyclodextrin, thermodynamic from solid; Gelucire 48/16; 45° C.; 24 h; loading 50 mg/mL
quantityKind: solubility at 24 h

Give a short answer stating reported solubility at 24 h for C=CC(=O)N1CCC[C@@H](c2c(F)cc(C(N)=O)c3[nH]c4c(c23)CCCCC4)C1 .
> 50 mg/mL

----------
Assay: Solubility testing in aqueous media at various pH (Form III)
Format: physicochemical
Settings: simulated gastric fluid, thermodynamic from solid; pH 1.2 Buffer; 37° C.; 4 h
quantityKind: solubility at 4 h (µg/mL)
Supply the numeric figure in µg/mL, leaving out any unit text.

Give a short answer stating reported solubility at 4 h for C=CC(=O)N1CCC[C@@H](c2c(F)cc(C(N)=O)c3[nH]c4c(c23)CCCCC4)C1 [Compound 1] .
0.9

----------
Assay: Phase 1 CSF penetrance (CSF/unbound plasma concentration)
Format: in vivo
Conditions: both sexes, human, CSF / unbound plasma, oral; Cohort 2, 15 mg single dose, 2 hr post-dose, mean; read-out: CSF/Unbound Plasma
Procedure: Safety is assessed throughout the study and PK and PD are characterized using serial blood samples collected up to 48 hours post-dose for Compound 1 plasma concentrations, BTK target occupancy (TO) and target engagement (TE). Cerebrospinal fluid (CSF) samples are collected at 2 hours post-dose to characterize the relationship between Compound 1 plasma concentrations and CNS penetrance (CSF/Unbound plasma concentration). […]
quantityKind: Kp at 2 h
Reply: number alone, nothing else.

Give a short answer stating reported Kp at 2 h for C=CC(=O)N1CCC[C@@H](c2c(F)cc(C(N)=O)c3[nH]c4c(c23)CCCCC4)C1 .
0.95

----------
Assay: Solubility testing in vehicle, HPLC (Form III)
Assay type: physicochemical
Details: oil or lipid, thermodynamic from solid; Sesame oil; RT; 24 h; pH 6.5; loading 15 mg/mL
Protocol: In each of the following studies (Examples 6-10), the starting material was Compound 1 (free form, not salt) Form III. The material was a light yellow solid, comprising non-hygroscopic irregular shaped crystal with aggregation. The same analytical methods as described in Example 1 were employed. […] Solubility was determined at room temperature for 24 and 72 hours and at 45° C. for 4 and 24 hours. […] The suspensions were filtered or centrifuged, and the filtrate analyzed by HPLC.
quantityKind: solubility at 24 h (µg/mL)
Supply the numeric figure in µg/mL, leaving out any unit text.

Give a short answer stating reported solubility at 24 h for C=CC(=O)N1CCC[C@@H](c2c(F)cc(C(N)=O)c3[nH]c4c(c23)CCCCC4)C1 .
730

----------
Experiment: Approximate solubility, solvent addition method, visual assessment
Type: physicochemical
Conditions: n-heptane, organic solvent or mixture, thermodynamic from solid, n-Heptane; read-out: Solubility
quantityKind: Solubility

Give a short answer stating reported Solubility for C=CC(=O)N1CCC[C@@H](c2c(F)cc(C(N)=O)c3[nH]c4c(c23)CCCCC4)C1 .
< 600 µg/mL

----------
Assay: Approximate solubility, solvent addition method, visual assessment
Type: physicochemical
Conditions: acetone, organic solvent or mixture, thermodynamic from solid, Acetone; read-out: Solubility
quantityKind: Solubility

Give a short answer stating reported Solubility for C=CC(=O)N1CCC[C@@H](c2c(F)cc(C(N)=O)c3[nH]c4c(c23)CCCCC4)C1 [starting material] .
~7100 µg/mL

----------
Experiment: Solubility testing in vehicle, HPLC (Form III)
Format: physicochemical
Settings: aqueous with cosolvent or surfactant or cyclodextrin, thermodynamic from solid; 10% TPGS; RT; 72 h; pH 5.3; loading 15 mg/mL
quantityKind: solubility at 72 h (µg/mL)
Supply the numeric figure in µg/mL, leaving out any unit text.

Give a short answer stating reported solubility at 72 h for C=CC(=O)N1CCC[C@@H](c2c(F)cc(C(N)=O)c3[nH]c4c(c23)CCCCC4)C1 .
2040

----------
Experiment: Phase 1 food effect on pharmacokinetics
Format: in vivo, human
Conditions: human, plasma, oral, 15 mg, Cohort 11, 15 mg single dose, Fasted, mean
quantityKind: AUC(0-inf) (ng·h/mL)
Supply the numeric figure in ng·h/mL, leaving out any unit text.

Give a short answer stating reported AUC(0-inf) for C=CC(=O)N1CCC[C@@H](c2c(F)cc(C(N)=O)c3[nH]c4c(c23)CCCCC4)C1 .
312

----------
Experiment: Phase 1 food effect on pharmacokinetics
Type: in vivo, human
Details: human, plasma, oral, 15 mg, Cohort 11, 15 mg single dose, High-Fat, median; read-out: Tmax
quantityKind: Tmax (h)
Supply the numeric figure in h, leaving out any unit text.

Give a short answer stating reported Tmax for C=CC(=O)N1CCC[C@@H](c2c(F)cc(C(N)=O)c3[nH]c4c(c23)CCCCC4)C1 .
2.5

----------
Experiment: Solubility testing in bio-relevant media (Form III)
Format: physicochemical
Conditions: thermodynamic from solid; FeSSIF-V2, pH 5.8; 37° C.; 24 h; pH at 24 h 5.9
quantityKind: solubility at 24 h (µg/mL)
Supply the numeric figure in µg/mL, leaving out any unit text.

Give a short answer stating reported solubility at 24 h for C=CC(=O)N1CCC[C@@H](c2c(F)cc(C(N)=O)c3[nH]c4c(c23)CCCCC4)C1 [Form III] .
180
